biological target: Prostaglandin D2 receptor 2 (Homo sapiens, UniProt Q9Y5Y4); assay: Antagonist activity at CRTh2 (unknown origin) stably expressed in PGD2-stimulated CHO.K1 cells preincubated for 1 hr by radio-labelled [35S]-GTPgammaS binding assay; assay type: functional, cell-based; details: read-out: IC50
pIC50: −log10 of the molar value.

- SMILES_RECORD: "O=C(O)Cn1cc(-c2ccc(C(F)(F)F)cc2Cc2ocnc2C2CC2)c2cc(F)ccc21"
  pIC50: 5.59
- SMILES_RECORD: "Cc1ccc(-n2cc(CC(=O)O)c3ccc(C)nc32)c(Cn2ccnc2C)c1"
  pIC50: 6.60
- SMILES_RECORD: "Cc1ccc2c(CC(=O)O)cc(-c3ccc(C(F)(F)F)cc3Cc3c(C)noc3C3CC3)n2n1"
  pIC50: 8.52
- SMILES_RECORD: "Cc1noc(C)c1-c1cccc(-c2c(C)n(CC(=O)O)c3ccc(F)cc23)c1"
  pIC50: 8.22
- SMILES_RECORD: "COc1ccc(CC(=O)O)cc1-c1ccc(C(F)(F)F)cc1Cn1c(C)nnc1C1CC1"
  pIC50: 7.57

----------
Each entry below lists one item and its recorded IC50 value.
molecular target: Prostaglandin D2 receptor 2 (Homo sapiens, UniProt Q9Y5Y4); assay: Antagonist activity at CRTh2 (unknown origin) stably expressed in PGD2-stimulated CHO.K1 cells preincubated for 1 hr by radio-labelled [35S]-GTPgammaS binding assay; type: functional, cell-based; details: read-out: IC50

- SMILES_RECORD: "Cc1cnn(C)c1Cc1cc(C(F)(F)F)ccc1-c1cn(CC(=O)O)c2ccc(F)cc12"
  TARGET_SYSTEM: "Prostaglandin D2 receptor 2 (Homo sapiens, UniProt Q9Y5Y4)"
  IC50 (nM): 64
- SMILES_RECORD: "Cc1ccc2c(CC(=O)O)cn(-c3ccc(Cl)cc3Cc3c(C4CC4)noc3C3CC3)c2n1"
  TARGET_SYSTEM: "Prostaglandin D2 receptor 2 (Homo sapiens, UniProt Q9Y5Y4)"
  IC50 (nM): 6
- SMILES_RECORD: "Cc1noc(C2CC2)c1Cc1cc(C(F)(F)F)ccc1-c1cn(CC(=O)O)c2ccc(C(F)(F)F)nc12"
  TARGET_SYSTEM: "Prostaglandin D2 receptor 2 (Homo sapiens, UniProt Q9Y5Y4)"
  IC50 (nM): 23
- SMILES_RECORD: "Cc1ccc(-n2cc(CC(=O)O)c3ccc(C)nc32)c(Cc2ccnn2Cc2ccccc2)c1"
  TARGET_SYSTEM: "Prostaglandin D2 receptor 2 (Homo sapiens, UniProt Q9Y5Y4)"
  IC50 (nM): 1000
- SMILES_RECORD: "Cc1noc(C2CC2)c1Cc1cc(F)ccc1-c1cn(CC(=O)O)c2ccc(C(F)(F)F)cc12"
  TARGET_SYSTEM: "Prostaglandin D2 receptor 2 (Homo sapiens, UniProt Q9Y5Y4)"
  IC50 (nM): 37
- SMILES_RECORD: "Cc1ccc2c(n1)c(-c1ccc(C(F)(F)F)cc1Cc1c(C)noc1C)cn2CC(=O)O"
  TARGET_SYSTEM: "Prostaglandin D2 receptor 2 (Homo sapiens, UniProt Q9Y5Y4)"
  IC50 (nM): 5
- SMILES_RECORD: "Cc1ccc2c(CC(=O)O)cn(-c3ccc(F)cc3Cc3c(C)cnn3C)c2n1"
  TARGET_SYSTEM: "Prostaglandin D2 receptor 2 (Homo sapiens, UniProt Q9Y5Y4)"
  IC50 (nM): 10
- SMILES_RECORD: "Cc1ccc2c(CC(=O)O)cn(-c3ccccc3Cn3ccnn3)c2n1"
  TARGET_SYSTEM: "Prostaglandin D2 receptor 2 (Homo sapiens, UniProt Q9Y5Y4)"
  IC50 (nM): 1800
- SMILES_RECORD: "CCN(Cc1cc(C(F)(F)F)ccc1-n1cc(CC(=O)O)c2ccc(C)nc21)C(C)=O"
  TARGET_SYSTEM: "Prostaglandin D2 receptor 2 (Homo sapiens, UniProt Q9Y5Y4)"
  IC50 (nM): 10
- SMILES_RECORD: "Cc1ccc2c(CC(=O)O)cn(-c3ccccc3Cn3ccnc3)c2n1"
  TARGET_SYSTEM: "Prostaglandin D2 receptor 2 (Homo sapiens, UniProt Q9Y5Y4)"
  IC50 (nM): 580
- SMILES_RECORD: "Cc1noc(C)c1Cc1cc(C(F)(F)F)ccc1-c1cn(CC(=O)O)c2ccc(F)cc12"
  TARGET_SYSTEM: "Prostaglandin D2 receptor 2 (Homo sapiens, UniProt Q9Y5Y4)"
  IC50 (nM): 20

----------
target: Prostaglandin D2 receptor 2 (Homo sapiens) (UniProt Q9Y5Y4); settings: CHO.K1
Sequence (Q9Y5Y4 whole entry): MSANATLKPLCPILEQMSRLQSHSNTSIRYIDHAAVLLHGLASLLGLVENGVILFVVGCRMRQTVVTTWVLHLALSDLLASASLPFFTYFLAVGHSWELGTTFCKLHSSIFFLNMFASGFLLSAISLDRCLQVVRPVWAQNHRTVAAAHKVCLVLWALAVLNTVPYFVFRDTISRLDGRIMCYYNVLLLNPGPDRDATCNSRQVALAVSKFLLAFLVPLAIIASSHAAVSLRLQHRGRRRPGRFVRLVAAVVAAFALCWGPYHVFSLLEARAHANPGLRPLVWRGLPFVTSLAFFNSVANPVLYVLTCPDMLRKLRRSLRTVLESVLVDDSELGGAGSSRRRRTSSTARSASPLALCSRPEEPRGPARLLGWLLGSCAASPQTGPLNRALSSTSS
Description: Antagonist activity at CRTh2 (unknown origin) stably expressed in PGD2-stimulated CHO.K1 cells assessed as dissociation half-life at 10 times IC50 after 1 hr preincubation by radio-labelled [35S]-GTPgammaS binding assay
Mark Condition met for T1/2 under 3 h, Condition not met if at or over.

- SMILES_RECORD: "Cc1ccc2c(n1)c(-c1ccc(C(F)(F)F)cc1Cc1c(C)noc1C)cn2CC(=O)O"
  QUALITATIVE_LABEL: "Condition not met"
- SMILES_RECORD: "Cc1ccc(-n2cc(CC(=O)O)c3ccc(C)nc32)c(Cn2c(C)nnc2C)c1"
  QUALITATIVE_LABEL: "Condition not met"
- SMILES_RECORD: "Cc1noc(C2CC2)c1Cc1cc(F)ccc1-c1cn(CC(=O)O)c2ccc(C(F)(F)F)cc12"
  QUALITATIVE_LABEL: "Condition not met"
- SMILES_RECORD: "COc1ccc(CC(=O)O)cc1-c1ccc(C(F)(F)F)cc1Cn1c(C)nnc1C1CC1"
  QUALITATIVE_LABEL: "Condition met"
- SMILES_RECORD: "Cc1c(-c2cccc3c2CCN(S(C)(=O)=O)C3)c2cc(F)ccc2n1CC(=O)O"
  QUALITATIVE_LABEL: "Condition met"
- SMILES_RECORD: "Cc1ccn2c(CC(=O)O)cc(-c3ccc(C(F)(F)F)cc3Cc3c(C)noc3C3CC3)c2n1"
  QUALITATIVE_LABEL: "Condition not met"
- SMILES_RECORD: "Cc1ccc2c(CC(=O)O)cn(-c3ccc(Cl)cc3Cn3c(C)nnc3CCc3ccccc3)c2n1"
  QUALITATIVE_LABEL: "Condition not met"
- SMILES_RECORD: "Cc1ccc(-n2cc(CC(=O)O)c3ccc(C)nc32)c(Cn2ccnc2-c2ccccc2)c1"
  QUALITATIVE_LABEL: "Condition met"
- SMILES_RECORD: "Cc1ccc2c(CC(=O)O)cn(-c3ccc(Cl)cc3Cn3c(C)nnc3C3CC3)c2n1"
  QUALITATIVE_LABEL: "Condition not met"
- SMILES_RECORD: "Cc1ccc(-n2cc(CC(=O)O)c3ccc(C)nc32)c(Cc2c(C)cnn2CC2CC2)c1"
  QUALITATIVE_LABEL: "Condition not met"
- SMILES_RECORD: "Cc1ccc2c(CC(=O)O)cn(-c3ccc(F)cc3Cc3c(C)cnn3C)c2n1"
  QUALITATIVE_LABEL: "Condition met"
- SMILES_RECORD: "Cc1ccc2c(CC(=O)O)cn(-c3ccc(C(F)(F)F)cc3Cc3c(C4CC4)noc3C3CC3)c2n1"
  QUALITATIVE_LABEL: "Condition not met"
- SMILES_RECORD: "CCN(Cc1cc(C(=O)NCCc2ccccc2)ccc1-n1cc(CC(=O)O)c2ccc(C)nc21)C(=O)C1CC1"
  QUALITATIVE_LABEL: "Condition not met"
- SMILES_RECORD: "Cc1nnc(C2CC2)n1Cc1cc(C(F)(F)F)ccc1-n1cc(CC(=O)O)c2ccc(F)cc21"
  QUALITATIVE_LABEL: "Condition not met"
- SMILES_RECORD: "Cc1cnn(C)c1Cc1cc(C(F)(F)F)ccc1-c1cn(CC(=O)O)c2ccc(F)cc12"
  QUALITATIVE_LABEL: "Condition met"

----------
target: Prostaglandin D2 receptor 2 (Homo sapiens); conditions: CHO.K1

- SMILES_RECORD: "Cc1noc(C2CC2)c1Cc1cc(C(F)(F)F)ccc1-c1cn(CC(=O)O)c2ccc(C(F)(F)F)nc12"
  RESULT_UNITS: "h"
  T1/2: 25
- SMILES_RECORD: "Cc1ccc2c(CC(=O)O)cn(-c3ccc(Cl)cc3Cc3c(C4CC4)noc3C3CC3)c2n1"
  RESULT_UNITS: "h"
  T1/2: 22
- SMILES_RECORD: "Cc1noc(C2CC2)c1Cc1cc(C(F)(F)F)ccc1-c1cn(CC(=O)O)c2ccc(F)cc12"
  RESULT_UNITS: "h"
  T1/2: 8
- SMILES_RECORD: "Cc1ccc2c(CC(=O)O)cn(-c3ccc(Cl)cc3Cn3c(C)nnc3Cc3ccccc3)c2n1"
  RESULT_UNITS: "h"
  T1/2: 26
- SMILES_RECORD: "Cc1noc(C)c1-c1cccc(-c2c(C)n(CC(=O)O)c3ccc(F)cc23)c1"
  RESULT_UNITS: "h"
  T1/2: 18

----------
target: Prostaglandin D2 receptor 2 (Homo sapiens, UniProt Q9Y5Y4); assay: Antagonist activity at CRTh2 (unknown origin) stably expressed in PGD2-stimulated CHO.K1 cells preincubated for 1 hr by radio-labelled [35S]-GTPgammaS binding assay; type: functional, cell-based; conditions: read-out: IC50
Label YES when IC50 < 7 nM; otherwise NO.

- SMILES_RECORD: "Cc1ccn2c(CC(=O)O)cc(-c3ccc(C(F)(F)F)cc3Cc3c(C)noc3C3CC3)c2n1"
  QUALITATIVE_LABEL: "YES"
- SMILES_RECORD: "Cc1nnc(C2CC2)n1Cc1cc(C(F)(F)F)ccc1-n1cc(CC(=O)O)c2ccc(F)cc21"
  QUALITATIVE_LABEL: "NO"
- SMILES_RECORD: "CCN(Cc1cc(C(F)(F)F)ccc1-c1cc(CC(=O)O)ccc1OC)C(=O)C1CC1"
  QUALITATIVE_LABEL: "NO"
- SMILES_RECORD: "Cc1ccc2c(CC(=O)O)cn(-c3ccc(Cl)cc3Cn3c(C)nnc3Cc3ccccc3)c2n1"
  QUALITATIVE_LABEL: "NO"
- SMILES_RECORD: "Cc1nnc(C2CC2)n1Cc1cc(C(F)(F)F)ccc1-c1cn(CC(=O)O)c2ccc(F)cc12"
  QUALITATIVE_LABEL: "YES"
- SMILES_RECORD: "Cc1ccc2c(CC(=O)O)cn(-c3ccc(Cl)cc3Cn3c(C)nnc3C3CC3)c2n1"
  QUALITATIVE_LABEL: "NO"
- SMILES_RECORD: "Cc1ccc2c(CC(=O)O)cn(-c3ccc(F)cc3Cc3c(C)noc3C)c2n1"
  QUALITATIVE_LABEL: "YES"
- SMILES_RECORD: "CCN(Cc1cc(C(=O)NCCc2ccccc2)ccc1-n1cc(CC(=O)O)c2ccc(C)nc21)C(=O)C1CC1"
  QUALITATIVE_LABEL: "NO"
- SMILES_RECORD: "Cc1ccc(-n2cc(CC(=O)O)c3ccc(C)nc32)c(Cn2nncc2C)c1"
  QUALITATIVE_LABEL: "NO"
- SMILES_RECORD: "Cc1noc(C2CC2)c1Cc1cc(C(F)(F)F)ccc1-c1cn(CC(=O)O)c2ccc(F)cc12"
  QUALITATIVE_LABEL: "NO"
- SMILES_RECORD: "Cc1ccc(-n2cc(CC(=O)O)c3ccc(C)nc32)c(Cc2c(C)cnn2CC2CC2)c1"
  QUALITATIVE_LABEL: "YES"
- SMILES_RECORD: "Cc1ccc2c(CC(=O)O)cn(-c3ccc(Cl)cc3Cc3cncnc3C(C)C)c2n1"
  QUALITATIVE_LABEL: "NO"
- SMILES_RECORD: "Cc1ccc(-n2cc(CC(=O)O)c3ccc(C)nc32)c(Cn2ccnc2-c2ccccc2)c1"
  QUALITATIVE_LABEL: "NO"
- SMILES_RECORD: "Cc1ccc2c(CC(=O)O)cn(-c3ccc(Cl)cc3Cn3c(C)nnc3CCc3ccccc3)c2n1"
  QUALITATIVE_LABEL: "NO"
- SMILES_RECORD: "Cc1ccc2c(CC(=O)O)cn(-c3ccc(C(F)(F)F)cc3Cc3c(C)noc3C3CC3)c2n1"
  QUALITATIVE_LABEL: "YES"
- SMILES_RECORD: "Cc1ccc2c(CC(=O)O)cn(-c3ccc(C(F)(F)F)cc3Cc3c(C4CC4)noc3C3CC3)c2n1"
  QUALITATIVE_LABEL: "YES"
- SMILES_RECORD: "Cc1c(-c2cccc3c2CCN(S(C)(=O)=O)C3)c2cc(F)ccc2n1CC(=O)O"
  QUALITATIVE_LABEL: "YES"

Origin of values: ChEMBL document CHEMBL3351469
